- Test system: Enterococcus faecalis
measured_metric: MIC

line_notation=CC[C@H](C)[C@H](NC(=O)CNC(=O)[C@@H](NC(=O)[C@H](CCCCN)NC(=O)[C@H](C)NC(=O)[C@@H](NC(=O)[C@@H](NC(=O)CN)[C@@H](C)CC)[C@@H](C)CC)[C@@H](C)CC)C(=O)N[C@@H](CCCCN)C(=O)N[C@H](C(=O)N[C@@H](CCCCN)C(=O)N[C@@H](CCCCN)C(N)=O)[C@@H](C)CC measured_metric=MIC result="≥ 128 µM"
line_notation=CC[C@H](C)[C@H](NC(=O)[C@H](Cc1cnc[nH]1)NC(=O)[C@H](CCCCN)NC(=O)[C@@H](NC(=O)[C@@H](N)CC(C)C)[C@@H](C)CC)C(=O)N[C@@H](CC(C)C)C(=O)N[C@@H](Cc1cnc[nH]1)C(=O)N[C@@H](CCCN=C(N)N)C(=O)N[C@@H](CC(C)C)C(N)=O measured_metric=MIC result="≥ 438 µM"

Field: next molecule
Q: Give measured MIC for C[C@@H](O)[C@H](NC(=O)[C@H](Cc1c[nH]c2ccccc12)NC(=O)[C@H](Cc1c[nH]c2ccccc12)NC(=O)[C@H](Cc1ccc(O)cc1)NC(=O)[C@H](CO)NC(=O)[C@H](Cc1c[nH]c2ccccc12)NC(=O)[C@@H](N)Cc1c[nH]c2ccccc12)C(=O)N[C@@H](CCC(N)=O)C(=O)N[C@@H](Cc1c[nH]c2ccccc12)C(N)=O (Enterococcus faecalis).
A: ≥ 87.5 µM

====

Dear all, this message contains MIC results, target or system Escherichia coli DH5alpha.

molecule="CC[C@H](C)[C@H](NC(=O)[C@H](Cc1cnc[nH]1)NC(=O)[C@H](C)NC(=O)[C@H](CCSC)NC(=O)[C@H](CC(N)=O)NC(=O)[C@H](CCCCN)NC(=O)[C@H](CCCCN)NC(=O)[C@@H](NC(=O)[C@@H](NC(=O)[C@H](CCCCN)NC(=O)[C@H](C)NC(=O)[C@H](Cc1ccccc1)NC(=O)[C@H](CC(C)C)NC(=O)[C@H](CCCCN)NC(=O)[C@@H]1CCCN1C(=O)[C@H](CC(C)C)NC(=O)[C@@H](N)Cc1ccccc1)[C@@H](C)CC)[C@@H](C)O)C(=O)N[C@@H](CCCN=C(N)N)C(=O)O [FLPKLFAKITKKNMAHIR]" result="≥ 50 µM"

Here are 2 molecules. What values of MIC were reported for them?
1. CC[C@H](C)[C@H](NC(=O)[C@H](Cc1ccccc1)NC(=O)[C@@H](NC(=O)[C@H](CC(C)C)NC(=O)[C@H](CCCN=C(N)N)NC(=O)[C@H](CCCCN)NC(=O)[C@H](CCCN=C(N)N)NC(=O)[C@H](CCCCN)NC(=O)[C@H](CC(C)C)NC(=O)[C@H](CC(C)C)NC(=O)[C@@H](NC(=O)[C@@H](N)Cc1ccc(O)cc1)C(C)C)[C@@H](C)CC)C(=O)O [YVLLKRKRLIFI]
2. CC(=O)N[C@@H](CCCN=C(N)N)C(=O)N[C@@H](CCCCN)C(=O)N[C@@H](CCCCN)C(=O)N[C@@H](Cc1c[nH]c2ccccc12)C(=O)N[C@@H](Cc1ccccc1)C(=O)N[C@@H](Cc1c[nH]c2ccccc12)C(N)=O [RKKWFW]

A:
1: ≥ 50 µM; 2: ≥ 32 µM
